Target Or Test System: SV2A (Macaca mulatta)
Sequence (H9EQH8 1-742): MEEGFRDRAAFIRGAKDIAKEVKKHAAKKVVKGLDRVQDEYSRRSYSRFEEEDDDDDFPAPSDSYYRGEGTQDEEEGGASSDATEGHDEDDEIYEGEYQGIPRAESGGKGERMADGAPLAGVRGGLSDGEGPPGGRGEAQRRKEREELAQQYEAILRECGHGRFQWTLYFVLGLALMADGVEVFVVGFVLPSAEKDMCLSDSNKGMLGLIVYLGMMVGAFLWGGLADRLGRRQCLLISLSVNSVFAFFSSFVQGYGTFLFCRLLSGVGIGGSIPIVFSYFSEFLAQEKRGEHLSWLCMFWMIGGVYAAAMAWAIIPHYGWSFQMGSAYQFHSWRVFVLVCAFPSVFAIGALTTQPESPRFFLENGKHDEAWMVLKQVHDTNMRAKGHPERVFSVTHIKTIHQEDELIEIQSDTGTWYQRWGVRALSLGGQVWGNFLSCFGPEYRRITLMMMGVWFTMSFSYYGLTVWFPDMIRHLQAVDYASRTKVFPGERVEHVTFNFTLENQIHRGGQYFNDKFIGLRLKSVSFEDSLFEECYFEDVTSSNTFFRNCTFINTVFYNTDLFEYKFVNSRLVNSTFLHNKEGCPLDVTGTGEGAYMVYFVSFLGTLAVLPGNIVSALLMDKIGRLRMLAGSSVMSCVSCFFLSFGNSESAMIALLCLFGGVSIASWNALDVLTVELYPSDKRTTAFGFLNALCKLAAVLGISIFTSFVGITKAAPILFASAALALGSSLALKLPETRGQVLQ
Test Description: PET imaging studies in rhesus monkeys
Condition Description: Occipital cortex; from VT, centrum semiovale as reference region
Experimental: Experiments were performed in rhesus monkeys (Macaca mulatta). […] Arterial blood samples were collected during the PET scans to calculate the plasma input function and to determine the unmetabolized parent fraction using the automatic column-switching HPLC system. Plasma free fraction (fp) was measured in triplicate using the ultrafiltration method. […] Typical injected radioactivity amount was 0.5-5 mCi per injection, with typical injected mass amount of 1-10 μg. […]
Below, each entry is listed with its recorded Binding potential (BPND).

# Molecule, Binding potential (BPND)
records = [
    ("Cc1cnccc1CN1CC(c2ccc(F)c(F)c2)CC1=O (stereo not shown) [^18F-4]", 2.30),
    ("Cc1cnccc1CN1CC(c2cc(F)c(F)c(F)c2)CC1=O (stereo not shown) [^18F-3]", 3.35),
    ("Cc1cnccc1CN1CC(c2cc(F)cc(F)c2)CC1=O (stereo not shown) [^18F-5]", 3.75),
    ("O=C1CC(c2cc(F)c(F)c(F)c2)CN1Cc1ccncc1F (stereo not shown) [^18F-10]", 0.53),
    ("Cc1cnccc1CN1CC(c2cccc(F)c2)CC1=O (stereo not shown) [^18F-11]", 2.90),
    ("Cc1cnccc1CN1CC(c2cc(F)c(F)c(F)c2)CC1=O (single isomer, unassigned) [^11C-3]", 2.97),
    ("O=C1CC(c2cccc(F)c2)CN1Cc1ccncc1 (stereo not shown) [^18F-12]", 0.90),
]

* * *

Target Or Test System: SV2A (Rattus norvegicus (Rat), UniProt Q02563)
Sequence (Q02563 whole entry): as the sequence (H9EQH8 1-742) above, with D53E, S62A, S64G, T71A, E144D, A154T, G440S, S482A, M634L counted along it
Condition Description: IC50, rat brain homogenates; radioligand (R)-11C-3 or (R)-18F-11; 37° C., 30 min
Below, each entry is listed with its recorded IC50.

# Compound, IC50 [nM]
rows = [
    ("Cc1cnccc1CN1CC(c2cccc(F)c2)CC1=O (single isomer, unassigned) [(R)-11]", 26.9),
    ("Cc1cnccc1CN1CC(c2cccc(F)c2)CC1=O (single isomer, unassigned) [(S)-11]", 109),
    ("Cc1cnccc1CN1CC(c2cc(F)c(F)c(F)c2)CC1=O (single isomer, unassigned) [(R)-3]", 1.62),
]

* * *

Below, each entry is listed with its recorded Ki.
Target Or Test System: SV2A (Rattus norvegicus (Rat))
Condition Description: converted from IC50 by the Cheng-Prusoff equation
Measured Parameter: Ki

# Compound, Test Result
measured = [
    ("Cc1cnccc1CN1C[C@H](c2ccc(F)c(F)c2)CC1=O (single isomer, unassigned) [(S)-4]", "9.43 nM"),
    ("Cc1cnccc1CN1C[C@H](c2cc(F)cc(F)c2)CC1=O (single isomer, unassigned) [(S)-5]", "115 nM"),
    ("Cc1cnccc1CN1C[C@H](c2cc(F)c(F)c(F)c2)CC1=O (single isomer, unassigned) [(S)-3]", "12.5 nM"),
    ("O=C1C[C@H](c2cccc(F)c2)CN1Cc1ccncc1 (single isomer, unassigned) [(R)-12]", "4.43 nM"),
    ("Cc1cnccc1CN1C[C@@H](c2cc(F)cc(F)c2)CC1=O (single isomer, unassigned) [Compound (R)-5]", "0.58 nM"),
]

* * *

Target Or Test System: SV2A (Macaca mulatta)
Test Description: PET imaging studies in rhesus monkeys
Condition Description: Globus pallidus; from VT, centrum semiovale as reference region
Measured Parameter: Binding potential (BPND)

# Compound, Measured Parameter, Test Result
rows = [
    ("Cc1cnccc1CN1CC(c2cc(F)c(F)c(F)c2)CC1=O (stereo not shown) [^18F-3]", "Binding potential (BPND)", 1.08),
    ("O=C1CC(c2cccc(F)c2)CN1Cc1ccncc1 (stereo not shown) [^18F-12]", "Binding potential (BPND)", 0.29),
    ("Cc1cnccc1CN1CC(c2ccc(F)c(F)c2)CC1=O (stereo not shown) [^18F-4]", "Binding potential (BPND)", 0.95),
    ("Cc1cnccc1CN1CC(c2cccc(F)c2)CC1=O (stereo not shown) [^18F-11]", "Binding potential (BPND)", 1.13),
    ("Cc1cnccc1CN1CC(c2cc(F)cc(F)c2)CC1=O (stereo not shown) [^18F-5]", "Binding potential (BPND)", 1.04),
    ("Cc1cnccc1CN1CC(c2cc(F)c(F)c(F)c2)CC1=O (single isomer, unassigned) [^11C-3]", "Binding potential (BPND)", 1.10),
    ("O=C1CC(c2cc(F)c(F)c(F)c2)CN1Cc1ccncc1F (stereo not shown) [^18F-10]", "Binding potential (BPND)", 0.14),
]
